Taken from paper PMC3692405.

- assayed target: CNGA3 plus CNGB3-F525N channels (Homo sapiens, UniProt Q16281+Q9NQW8, F525N)
- Construct: expressed in transfected cells; host or cells: Xenopus laevis oocytes injected with cRNA transcribed from pGEMHE constructs
- Sequence (Q16281 1-694): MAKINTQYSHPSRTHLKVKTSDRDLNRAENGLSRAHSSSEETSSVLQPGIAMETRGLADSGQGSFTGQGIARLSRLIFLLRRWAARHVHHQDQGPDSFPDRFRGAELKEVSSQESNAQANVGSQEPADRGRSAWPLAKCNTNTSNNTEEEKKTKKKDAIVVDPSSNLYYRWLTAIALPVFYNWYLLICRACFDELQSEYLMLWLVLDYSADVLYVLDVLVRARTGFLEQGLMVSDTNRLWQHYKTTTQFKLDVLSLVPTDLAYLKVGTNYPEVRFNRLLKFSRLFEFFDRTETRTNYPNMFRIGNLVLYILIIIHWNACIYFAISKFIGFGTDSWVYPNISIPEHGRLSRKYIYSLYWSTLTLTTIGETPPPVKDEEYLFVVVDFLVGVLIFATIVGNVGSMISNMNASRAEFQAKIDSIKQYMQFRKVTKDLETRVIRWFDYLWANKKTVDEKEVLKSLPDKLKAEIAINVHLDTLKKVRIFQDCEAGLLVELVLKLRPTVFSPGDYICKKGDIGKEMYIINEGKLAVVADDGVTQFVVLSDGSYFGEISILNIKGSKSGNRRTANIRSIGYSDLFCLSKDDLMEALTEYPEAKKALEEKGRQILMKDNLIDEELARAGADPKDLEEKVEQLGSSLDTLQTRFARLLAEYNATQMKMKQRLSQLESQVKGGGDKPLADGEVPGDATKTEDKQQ
- Sequence (Q9NQW8 1-809 F525N): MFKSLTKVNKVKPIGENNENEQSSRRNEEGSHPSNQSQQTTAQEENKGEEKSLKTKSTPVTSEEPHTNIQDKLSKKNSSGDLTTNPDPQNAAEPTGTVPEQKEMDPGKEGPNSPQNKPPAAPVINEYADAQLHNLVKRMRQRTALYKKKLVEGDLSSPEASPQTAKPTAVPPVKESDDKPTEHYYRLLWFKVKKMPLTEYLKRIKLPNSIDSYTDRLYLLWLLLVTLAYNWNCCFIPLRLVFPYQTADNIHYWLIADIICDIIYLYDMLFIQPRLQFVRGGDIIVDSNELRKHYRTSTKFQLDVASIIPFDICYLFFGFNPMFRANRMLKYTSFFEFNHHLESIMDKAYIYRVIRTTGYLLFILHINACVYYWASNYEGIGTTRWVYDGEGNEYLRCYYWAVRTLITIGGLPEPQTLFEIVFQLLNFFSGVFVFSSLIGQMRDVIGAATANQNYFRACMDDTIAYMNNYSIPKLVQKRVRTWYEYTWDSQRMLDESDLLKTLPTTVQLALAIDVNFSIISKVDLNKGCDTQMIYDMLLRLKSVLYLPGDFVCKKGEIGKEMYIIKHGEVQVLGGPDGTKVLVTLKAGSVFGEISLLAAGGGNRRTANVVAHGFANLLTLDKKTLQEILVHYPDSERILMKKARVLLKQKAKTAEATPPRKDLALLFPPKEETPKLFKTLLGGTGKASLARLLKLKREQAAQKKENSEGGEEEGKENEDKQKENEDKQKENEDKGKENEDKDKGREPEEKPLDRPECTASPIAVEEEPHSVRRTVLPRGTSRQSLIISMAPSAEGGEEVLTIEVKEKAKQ
- run description: Inside-out patch-clamp recording of channels expressed in Xenopus oocytes (CNGB3 F525N)
- Type: biochemical
- test settings: +80 mV, Hill fit; mean±SEM; read-out: apparent CPT-cGMP affinity K1/2, CPT-cGMP (channel activation)
observable: pEC50
For clarity, pEC50 is expressed as the negative log10 of concentration in mol/L.

**Q:** Could you share which pEC50 value was measured for Nc1nc2c(nc(Sc3ccc(Cl)cc3)n2[C@@H]2O[C@@H]3COP(=O)(O)O[C@H]3[C@H]2O)c(=O)[nH]1 ?
**A:** 7.06
